- TARGET OR TEST SYSTEM: Huntingtin (Homo sapiens)
- PROTOCOL DETAILS: mutant huntingtin-calmodulin interaction inhibitors – biochemical, AlphaScreen, primary screen (AID 1671202);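 also: 0% = both proteins with DMSO and 100% = one protein alone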
- PROTOCOL CONDITIONS: AlphaScreen His-mHTT/GST-CaM binding, luminescence; at 15 µM, stronger effect = higher value
Out of some 190,000 compounds screened, about 6,900 (3.6%) were called active. Shown is part of a subset that was picked to be rich in actives.
ASSAY METRIC: inhibition (%)
// note: answer is a bare numeric in %

Answered examples (5):
Prompt line: Give the reported inhibition for Cc1cccc2nnc(N3CCC(C(=O)Nc4ccc(Cl)cc4)CC3)n12 (system: Huntingtin (Homo sapiens)).
Response line: 3.32

Prompt line: Try O=C(NCc1ccc2[nH]c3c(c2c1)CCCC3)C1CC1 next.
Response line: 7.3

Prompt line: Try COc1cccc(OC)c1OCCOc1cccc(Cl)c1Cl next.
Response line: -101

Prompt line: Try COc1ccc(C2=NC(c3ccncc3)=Nc3ccc(Br)cc3N2)cc1 next.
Response line: 50.3

Prompt line: Try O=C(C1CCN(S(=O)(=O)c2ccc3[nH]c4c(c3c2)CCCCC4)CC1)N1CCCC1 next.
Response line: 56.3

New cases:
Prompt line: Give the reported inhibition for O=C(c1ccc(F)c(F)c1)N1CCc2[nH]cnc2C1c1ccccc1 (stereo unspecified) (system: Huntingtin (Homo sapiens)).
Response line: 17.4

Prompt line: Try Cc1cc(C(=O)N2CCOCC2)c2cccc(-c3cccs3)c2n1 next.
Response line: -5.8

Prompt line: Try Cc1cccc(NS(=O)(=O)c2ccc3nnc(C)n3c2)c1 next.
Response line: 5

Prompt line: Try CC(C)NC(=O)N1CCc2[nH]cnc2C1c1ccccn1 (stereo unspecified) next.
Response line: 83.5

Prompt line: Try Cc1ccc(C2=NC3(CCCCC3)N(CC(=O)Nc3cccc(C)c3)C2=O)cc1 next.
Response line: 0.12

Prompt line: Try COc1ccc(CCNC(=S)NC2Cc3ccccc3C2)cc1OC next.
Response line: 6.9

* * *

- TARGET OR TEST SYSTEM: Huntingtin (Homo sapiens) (UniProt P42858)
- Sequence (P42858 whole entry, looked up, stated change not applied): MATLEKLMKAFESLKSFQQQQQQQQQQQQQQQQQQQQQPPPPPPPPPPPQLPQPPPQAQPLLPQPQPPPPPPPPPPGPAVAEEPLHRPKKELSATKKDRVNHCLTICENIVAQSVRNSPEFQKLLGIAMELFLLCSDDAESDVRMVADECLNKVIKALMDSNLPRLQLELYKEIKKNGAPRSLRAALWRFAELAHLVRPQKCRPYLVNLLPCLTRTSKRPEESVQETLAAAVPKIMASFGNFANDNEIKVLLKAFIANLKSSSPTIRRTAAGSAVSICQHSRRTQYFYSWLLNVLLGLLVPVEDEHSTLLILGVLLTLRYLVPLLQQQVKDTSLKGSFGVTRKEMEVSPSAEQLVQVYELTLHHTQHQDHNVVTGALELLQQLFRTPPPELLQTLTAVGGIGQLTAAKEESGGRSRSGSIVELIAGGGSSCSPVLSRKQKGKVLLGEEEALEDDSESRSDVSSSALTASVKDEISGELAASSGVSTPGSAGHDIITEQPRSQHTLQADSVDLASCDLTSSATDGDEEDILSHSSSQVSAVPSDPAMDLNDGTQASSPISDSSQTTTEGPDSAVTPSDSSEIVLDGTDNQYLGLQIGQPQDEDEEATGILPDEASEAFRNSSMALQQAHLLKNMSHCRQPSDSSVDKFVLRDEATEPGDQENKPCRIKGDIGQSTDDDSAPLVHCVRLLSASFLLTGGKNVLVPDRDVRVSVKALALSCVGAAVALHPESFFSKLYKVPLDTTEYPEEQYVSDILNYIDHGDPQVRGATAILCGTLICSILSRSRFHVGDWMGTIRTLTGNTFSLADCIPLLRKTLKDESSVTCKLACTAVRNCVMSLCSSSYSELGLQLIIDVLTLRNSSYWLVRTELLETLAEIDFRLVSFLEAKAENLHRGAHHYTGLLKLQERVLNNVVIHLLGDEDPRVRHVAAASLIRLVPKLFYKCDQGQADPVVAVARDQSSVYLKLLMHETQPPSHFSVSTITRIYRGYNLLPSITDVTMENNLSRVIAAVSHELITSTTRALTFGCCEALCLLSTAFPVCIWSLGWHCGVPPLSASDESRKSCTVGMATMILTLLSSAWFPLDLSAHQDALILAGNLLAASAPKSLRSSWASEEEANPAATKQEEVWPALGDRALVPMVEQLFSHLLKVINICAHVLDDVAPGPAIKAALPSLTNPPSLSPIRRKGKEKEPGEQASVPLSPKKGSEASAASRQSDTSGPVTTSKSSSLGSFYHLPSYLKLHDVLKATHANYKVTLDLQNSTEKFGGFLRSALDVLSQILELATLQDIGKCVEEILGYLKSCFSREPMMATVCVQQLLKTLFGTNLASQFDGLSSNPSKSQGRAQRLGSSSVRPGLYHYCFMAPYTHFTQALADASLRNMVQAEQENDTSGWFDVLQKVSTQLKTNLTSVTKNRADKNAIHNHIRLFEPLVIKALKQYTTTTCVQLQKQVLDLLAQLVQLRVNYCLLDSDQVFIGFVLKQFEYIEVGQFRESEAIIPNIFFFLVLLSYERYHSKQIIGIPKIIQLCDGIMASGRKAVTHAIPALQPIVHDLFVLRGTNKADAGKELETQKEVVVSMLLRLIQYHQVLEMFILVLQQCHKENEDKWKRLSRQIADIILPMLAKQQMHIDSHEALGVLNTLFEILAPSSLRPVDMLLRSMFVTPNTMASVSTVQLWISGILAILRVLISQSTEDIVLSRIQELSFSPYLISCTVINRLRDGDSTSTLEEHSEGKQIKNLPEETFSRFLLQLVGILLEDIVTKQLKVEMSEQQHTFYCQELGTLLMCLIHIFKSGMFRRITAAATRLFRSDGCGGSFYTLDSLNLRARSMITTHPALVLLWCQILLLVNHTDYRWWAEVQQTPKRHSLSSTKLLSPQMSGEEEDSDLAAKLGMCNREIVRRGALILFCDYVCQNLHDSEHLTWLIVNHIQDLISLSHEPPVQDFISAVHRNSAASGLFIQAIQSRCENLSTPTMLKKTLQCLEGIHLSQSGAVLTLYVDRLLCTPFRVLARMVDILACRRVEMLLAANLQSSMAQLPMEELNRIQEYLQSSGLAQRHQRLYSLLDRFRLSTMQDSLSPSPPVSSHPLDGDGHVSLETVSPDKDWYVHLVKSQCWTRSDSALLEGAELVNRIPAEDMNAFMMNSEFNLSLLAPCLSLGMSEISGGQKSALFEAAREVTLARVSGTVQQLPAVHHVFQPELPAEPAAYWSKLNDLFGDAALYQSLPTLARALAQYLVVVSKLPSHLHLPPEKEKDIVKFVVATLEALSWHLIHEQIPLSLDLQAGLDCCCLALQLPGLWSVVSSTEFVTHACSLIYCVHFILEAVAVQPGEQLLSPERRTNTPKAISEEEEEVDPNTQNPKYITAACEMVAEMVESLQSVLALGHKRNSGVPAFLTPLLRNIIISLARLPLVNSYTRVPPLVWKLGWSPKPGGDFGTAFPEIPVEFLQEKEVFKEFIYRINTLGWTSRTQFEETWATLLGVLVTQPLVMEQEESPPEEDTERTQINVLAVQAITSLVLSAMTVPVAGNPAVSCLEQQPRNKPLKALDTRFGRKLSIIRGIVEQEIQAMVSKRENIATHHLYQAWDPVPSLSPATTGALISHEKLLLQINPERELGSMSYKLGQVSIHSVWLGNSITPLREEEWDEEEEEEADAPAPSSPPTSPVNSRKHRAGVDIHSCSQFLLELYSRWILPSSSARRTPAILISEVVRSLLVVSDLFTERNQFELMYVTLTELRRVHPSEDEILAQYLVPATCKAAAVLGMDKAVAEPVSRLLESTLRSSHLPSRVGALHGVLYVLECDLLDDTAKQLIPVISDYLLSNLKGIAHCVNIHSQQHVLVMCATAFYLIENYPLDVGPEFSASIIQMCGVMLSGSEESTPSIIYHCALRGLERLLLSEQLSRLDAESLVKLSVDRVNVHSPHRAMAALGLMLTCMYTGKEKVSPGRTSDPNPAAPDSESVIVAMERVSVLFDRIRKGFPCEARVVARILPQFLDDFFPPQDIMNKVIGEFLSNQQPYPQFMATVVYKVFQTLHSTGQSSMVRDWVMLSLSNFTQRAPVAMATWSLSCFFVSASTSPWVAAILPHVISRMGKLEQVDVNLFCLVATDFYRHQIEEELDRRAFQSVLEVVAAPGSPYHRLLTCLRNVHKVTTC
- PROTOCOL DETAILS: mutant huntingtin-calmodulin interaction inhibitors – biochemical, AlphaScreen, primary screen (AID 1671202);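 also: 0% = both proteins with DMSO and 100% = one protein alone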
- PROTOCOL CONDITIONS: AlphaScreen His-mHTT/GST-CaM binding, luminescence; at 15 µM, stronger effect = higher value
Out of some 190,000 compounds screened, about 6,900 (3.6%) were called active. For the sample, actives were picked, then their nearest neighbours and some compounds at random.
The following molecules are shown together with reported inhibition values.

Answered examples (8):
Prompt line: I have this molecule here, CCOC(=O)N1CCC2(CC1)N=C(c1cc(Cl)ccc1O)CC(c1ccc(C)cc1)N2 (stereo not given) , and I need its recorded inhibition.
Response line: 6.77% (inactive)

Prompt line: Try CC1(C)CC(=O)C2=C(C1)NC1=C(C(=O)c3ccccc31)C2c1ccc(OCc2ccccc2)cc1 (stereo not given) next.
Response line: 100% (active)

Prompt line: Try Brc1ccc(Nc2nc(-c3ccc4c(c3)OCO4)cs2)nc1 next.
Response line: -1.1% (inactive)

Prompt line: Try O=C(c1ccco1)N1CCCC(c2nncn2-c2ccccc2)C1 (stereo not given) next.
Response line: 8.27% (inactive)

Prompt line: Try CCN(CC)CCNC(=O)C1CCN(c2nnc3ccccn23)CC1 next.
Response line: 5.6% (inactive)

Prompt line: Try O=C(Nc1ccc(N2CCN(c3ccccc3)C2=O)nc1)c1ccc(F)cc1 next.
Response line: 1.4% (inactive)

Prompt line: Try Cc1ccc(Nc2nc(-c3ccc(O)cc3O)cs2)nc1 next.
Response line: 100% (active)

Prompt line: Try CN1CCC2(CC1)N=C(c1ccc3c(c1)OCO3)CC(c1cc(Cl)ccc1O)N2 (stereo not given) next.
Response line: 16% (inactive)

New cases:
Prompt line: I have this molecule here, Cc1ccc(-c2csc(NC(=O)c3ccc([N+](=O)[O-])cc3)n2)c(C)c1 , and I need its recorded inhibition.
Response line: 10.4% (inactive)

Prompt line: Try COc1cccc(C(=O)N2CCC(c3nnc(C(F)(F)F)o3)CC2)c1OC next.
Response line: -7.5% (inactive)

* * *

- TARGET OR TEST SYSTEM: Huntingtin (Homo sapiens) (UniProt P42858)
- PROTOCOL DETAILS: mutant huntingtin-calmodulin interaction inhibitors – biochemical, AlphaScreen, primary screen (AID 1671202);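 also: 0% = both proteins with DMSO and 100% = one protein alone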
- PROTOCOL CONDITIONS: AlphaScreen His-mHTT/GST-CaM binding, luminescence; at 15 µM, stronger effect = higher value
Among all 190,000 compounds or so, about 6,900 (3.6%) were called active. The sample as a whole holds a higher share of actives than the screen did.
ASSAY METRIC: inhibition (%)
// note: answer is a bare numeric in %

Answered examples (2):
Prompt line: Give the reported inhibition for CC1=NN(c2ccc(Cl)cc2Cl)C(=O)/C1=C/c1ccc(Cl)cc1 (system: Huntingtin (Homo sapiens) (UniProt P42858)).
Response line: 27

Prompt line: Try COC1=C(N2CCOCC2)C(=O)c2ccccc2C1=O next.
Response line: -2.9

New cases:
Prompt line: Give the reported inhibition for O=C1C(Nc2cccc(Cl)c2)=C(N2CCOCC2)C(=O)c2ccccc21 (system: Huntingtin (Homo sapiens) (UniProt P42858)).
Response line: 59

Prompt line: Try COc1ccccc1OCCCCOc1ccccc1OC next.
Response line: -8.5

Prompt line: Try COCCCNC(=O)c1cnn2c(C(F)(F)F)cc(-c3cccs3)nc12 next.
Response line: 10

Prompt line: Try Cc1cc(C)c(NC(=O)CNC2CC(C)(C)NC(C)(C)C2)c(C)c1 next.
Response line: -6.9

Prompt line: Try O=C(Nc1cc([N+](=O)[O-])ccc1Cl)c1ncn[nH]1 next.
Response line: 4

Prompt line: Try CCOC(=O)C1CCN(C(=O)CCN2C(=O)c3ccccc3S2(=O)=O)CC1 next.
Response line: -1.8

Prompt line: Try COc1ccc(C(=O)Sc2nc(C)cc(C)n2)cc1 next.
Response line: 98

Prompt line: Try COc1ccc(CN(CC(=O)NCCc2ccccc2)S(=O)(=O)c2cccnc2)cc1 next.
Response line: -5.6

Prompt line: Try COc1cc(/C=C2/C(=O)N(c3ccc(Cl)c(Cl)c3)N=C2C)ccc1O next.
Response line: 79

Prompt line: Try COc1ccccc1OCC(=O)Nc1c2c(nn1-c1ccc(F)cc1)CS(=O)(=O)C2 next.
Response line: -5.8

Prompt line: Try CC1CN(C(=O)COc2cccc3c2OC(C)(C)C3)CC(C)O1 (centres undefined) next.
Response line: 1.8

Prompt line: Try COc1cccc(CC(=O)Nc2cccn3c(C)nnc23)c1 next.
Response line: -2.3

* * *

- TARGET OR TEST SYSTEM: Huntingtin (Homo sapiens)
- PROTOCOL DETAILS: mutant huntingtin-calmodulin interaction inhibitors – biochemical, AlphaScreen, primary screen (AID 1671202);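 also: 0% = both proteins with DMSO and 100% = one protein alone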
- PROTOCOL CONDITIONS: AlphaScreen His-mHTT/GST-CaM binding, luminescence; at 15 µM, stronger effect = higher value
About 6,900 (3.6%) of roughly 190,000 compounds were called active. The sample as a whole holds a higher share of actives than the screen did.
ASSAY METRIC: inhibition (%)
// note: answer is a bare numeric in %

Prompt line: I have this molecule here, CN1CCC(CCNC(=O)c2ccc3[nH]c4c(c3c2)CN(C(=O)C2CCC2)CC4)CC1 , and I need its recorded inhibition.
Response line: 4.82

Prompt line: Try CCOC(=O)c1ccc(Oc2coc3c4c(ccc3c2=O)OCN(C2CCS(=O)(=O)C2)C4)cc1 (stereo not given) next.
Response line: 6.6

Prompt line: Try CC(=O)N1CCc2[nH]c3ccc(C(=O)NC4CCCCC4)cc3c2C1 next.
Response line: 9.6

Prompt line: Try COC(=O)c1ccc(Oc2coc3c4c(ccc3c2=O)OCN(c2ccc(OC)cc2OC)C4)cc1 next.
Response line: 54.7

Alright, here's another molecule for you.
Prompt line: I have this molecule here, O=C(NCc1ccco1)c1cc2nc(-c3ccc(Cl)cc3)cc(C(F)(F)F)n2n1 , and I need its recorded inhibition.
Response line: -2

* * *

- TARGET OR TEST SYSTEM: Huntingtin (Homo sapiens) (UniProt P42858)
- PROTOCOL DETAILS: mutant huntingtin-calmodulin interaction inhibitors – biochemical, AlphaScreen, primary screen (AID 1671202);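 also: 0% = both proteins with DMSO and 100% = one protein alone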
- PROTOCOL CONDITIONS: AlphaScreen His-mHTT/GST-CaM binding, luminescence; at 15 µM, stronger effect = higher value
Among all 190,000 compounds or so, about 6,900 (3.6%) were called active. Only a selection was taken, and actives are over-represented in it overall.
ASSAY METRIC: inhibition (%)
// note: answer is a bare numeric in %

Answered examples (5):
Prompt line: Give the reported inhibition for O=C1OC(c2ccco2)=N/C1=C/c1ccc2c(c1)OCO2 (system: Huntingtin (Homo sapiens) (UniProt P42858)).
Response line: 29

Prompt line: Try Cc1ccc(N2C(=O)C3C4C=CC(CC4)C3C2=O)cc1Cl (stereo unspecified) next.
Response line: -5

Prompt line: Try COc1ccc(Cl)cc1NC(=O)C1CC(=O)N(c2ccc3c(c2)CCN3C(C)=O)C1 (stereo unspecified) next.
Response line: 2.25

Prompt line: Try COc1ccc(N2C(=O)C3N=NN(Cc4c(F)cccc4Cl)C3C2=O)cc1 (stereo unspecified) next.
Response line: -2.2

Prompt line: Try O[C@H]1C[C@H](c2ccc(Cl)cc2)N(Cc2cccs2)C[C@@H]1n1cc(C2CC2)nn1 next.
Response line: 100

New cases:
Prompt line: Give the reported inhibition for COCCN1C(=O)c2ccccc2C(C(=O)NCC2CCCO2)C1c1ccc(F)cc1 (stereo unspecified) (system: Huntingtin (Homo sapiens) (UniProt P42858)).
Response line: 0

Prompt line: Try Cc1ccc2[nH]c3c(c2c1)CCCC3O (stereo unspecified) next.
Response line: 19.3

Prompt line: Try Cc1ccsc1C1N(c2ccc(Cl)c(Cl)c2)C(=O)C2CCCN21 (stereo unspecified) next.
Response line: 96.1

Prompt line: Try COc1cccc(C2C3=C(Nc4c2c(=O)n(C)c(=O)n4C)c2ccccc2C3=O)c1OC (stereo unspecified) next.
Response line: 27

Prompt line: Try CCOc1ccc(C2CC(c3ccc(Cl)cc3)Nc3nnnn32)cc1OC (stereo unspecified) next.
Response line: 38

Prompt line: Try O[C@@H]1C[C@H](c2ccccc2)N(Cc2cccs2)C[C@H]1n1cc(C2CC2)nn1 next.
Response line: 19.2

Prompt line: Try COc1ccc2oc(-c3ccc(NC(=O)c4cccc(Br)c4)cc3)nc2c1 next.
Response line: 34

Prompt line: Try O=C1/C(=C/c2ccc3c(c2)OCO3)CCC/C1=C\c1ccc2c(c1)OCO2 next.
Response line: 58

Prompt line: Try O=C(OCc1cn([C@@H]2C[C@H](c3ccc(Cl)cc3)N(Cc3cccs3)C[C@H]2O)nn1)c1ccccc1 next.
Response line: 2.5

Prompt line: Try COc1ccc(N2C(=O)C3CCCN3C2c2cc(OC)c(OC)cc2OC)cc1 (stereo unspecified) next.
Response line: -4.26

Prompt line: Try O=C(c1cccs1)N1C[C@H](n2cc(C3CC3)nn2)[C@@H](O)C[C@@H]1c1ccccc1 next.
Response line: 4.1

Prompt line: Try N#Cc1ccc(Sc2nc3ccccc3o2)c([N+](=O)[O-])c1 next.
Response line: 12
